Biological target: PCP recognition sites (PCP receptor), rat whole brain membranes
Assay: [^3 H]TCP Radioreceptor Assay (internal screen)
Conditions: [^3 H]TCP approx. 1 nM, room temperature 25 min; mean of at least two separate determinations
measurement_name: pKi
Scale: pKi equals -log10([C]), with [C] in mol/L.

c1ccc2c(c1)C1CC(C3CC3)(C3CC3)C2c2cccc[n+]21 (stereo not shown) ... 6.99

The molecule listed as CC1(C)C2c3ccccc3C([n+]3ccccc32)C1(C)C.[O-][Cl+3]([O-])([O-])[O-] (stereo not shown) shows pKi equal to 7.67

response.value for CCOCC1(COCC)CC2c3ccccc3C1c1cccc[n+]12 (stereo not shown) (field: pKi) = 6.45

Query CC(C)(C)C1C2c3ccccc3C(C1C(C)(C)C)[n+]1ccccc12 (single isomer, unassigned) yields pKi of 5.29
